Each recorded value in this set is attributed to paper PMC6272903.

Target: human 5-HT7b receptors (Homo sapiens, UniProt P34969)
Construct: expressed in transfected cells; host or cells: HEK293
Sequence (P34969 1-432): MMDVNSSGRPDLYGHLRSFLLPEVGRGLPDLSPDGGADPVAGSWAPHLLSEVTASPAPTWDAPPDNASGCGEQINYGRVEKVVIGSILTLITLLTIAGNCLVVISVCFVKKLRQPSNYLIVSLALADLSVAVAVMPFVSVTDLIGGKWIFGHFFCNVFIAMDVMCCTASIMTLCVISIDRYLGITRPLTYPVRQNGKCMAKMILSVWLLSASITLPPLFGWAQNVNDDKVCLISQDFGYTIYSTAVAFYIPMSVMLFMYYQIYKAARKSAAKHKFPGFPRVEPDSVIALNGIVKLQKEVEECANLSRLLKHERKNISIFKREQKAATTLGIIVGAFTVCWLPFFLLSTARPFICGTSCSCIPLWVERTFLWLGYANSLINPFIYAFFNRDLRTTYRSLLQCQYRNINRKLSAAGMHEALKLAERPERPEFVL
Assay: 5-HT7 competition radioligand binding assay ([3H]5-CT)
Conditions: HEK293 cells overexpressing human 5-HT7b receptors, at least two independent experiments in triplicate, read-out: Ki ± S.D. 5-HT7 binding affinity
pKi: −log10 of the molar value.
readout-kind: pKi

CCCCc1cc(-c2ccoc2)nc(N2CCN(C)CC2)n1
8.80
Cc1cc(-c2ccco2)cc(N2CCN(C)CC2)c1
6.51
CCC(C)c1cc(-c2ccoc2)nc(N2CCN(C)CC2)n1 (stereo not shown)
8.57
Cc1cc(-c2ccco2)cc(N2CCN(C)CC2)n1
6.86

1: CN1CCN(c2nc(C#CC3=CCCCC3)cc(-c3ccoc3)n2)CC1
2: Cc1ccc(-c2ccnc(N3CCN(C)CC3)n2)o1
3: c1cc(-c2ccoc2)nc(NCCN2CCOCC2)n1
4: c1ccc(CCCN2CCN(c3nccc(-c4ccoc4)n3)CC2)cc1
Falling order of pKi, please. Form field (ranking): labels in requested order.
4, 1, 3, 2
(4: 8.80, 1: 7.74, 3: 5.61, 2: 5.37)
